meta.source: patent US20250145665A1

Molecular target: TNFα (Homo sapiens)
Sequence (P01375 77-233 limits assumed): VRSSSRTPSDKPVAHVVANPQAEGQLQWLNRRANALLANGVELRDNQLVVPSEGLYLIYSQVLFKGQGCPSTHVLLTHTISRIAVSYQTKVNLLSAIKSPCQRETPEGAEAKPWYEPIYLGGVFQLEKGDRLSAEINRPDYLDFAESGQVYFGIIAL
Assay: TNF-Induced HEK-Blue Assay
Format: cell-based
Conditions: HEK-Blue-CD40L cells, NF-kB-driven secreted alkaline phosphatase reporter; TNFα 0.5 ng/ml; 18 h; read-out: TNF induced HEK-Blue assay IC50 value
pIC50: −log10 of the molar value. Starred links: 1 amine or outer side, 2 acyl side, 3 side chain; linkers in the order of their positions; H or OH if unused. Positions of bridges follow the written chain, without caps; N, C: chain ends. Non-standard residues stand in square brackets, D forms with d. Residues, ends and D or L forms follow the SMILES beside them. X5 = Cn1nc(C(=O)Nc2ccc(-c3ccc(C[C@H](N[*:1])C(=O)[*:2])cc3)cc2)c2ccccc21; Ala(morpholin-4-yl) = N[C@@H](CN1CCOCC1)C(=O)O; Bip = N[C@@H](Cc1ccc(-c2ccccc2)cc1)C(=O)O; Tic = O=C(O)[C@@H]1Cc2ccccc2CN1; Sar = CNCC(=O)O
For each record, write down the corresponding pIC50.

Data request, read-out pIC50, for CC(C)C[C@@H]1NC(=O)[C@H](CCCNC(=N)N)NC(=O)[C@H](C(C)C)NC(=O)[C@@H]2CCCN2C(=O)[C@H](C(C)C)NC(=O)[C@@H](CCCNC(=N)N)NC(=O)[C@H](CC(=O)O)NC(=O)[C@@H]2CCCN2C(=O)CN(C)C(=O)[C@H](Cc2ccc(-c3ccc(NC(=O)c4nn(C)c5ccccc45)cc3)cc2)NC(=O)[C@H](Cc2ccc(-c3ccccc3)cc2)NC(=O)[C@H](CN2CCOCC2)NC(=O)CSC[C@@H](C(=O)NCC(N)=O)NC1=O [Example 338] ({CH2CO}-[Ala(morpholin-4-yl)][Bip][X5][Sar]PD[dR]VPVRLCG-NH2; thioether N-13)
> 7.30

And for CC(C)C[C@@H]1NC(=O)[C@H](Cc2ccc(O)cc2)NC(=O)[C@H](C(C)C)NC(=O)[C@@H]2Cc3ccccc3CN2C(=O)[C@H](C(C)C)NC(=O)[C@H](CCCNC(=N)N)NC(=O)[C@H](CC(=O)O)NC(=O)[C@H](Cc2ccc(O)cc2)NC(=O)CN(C)C(=O)[C@H](Cc2ccc(-c3ccccc3)cc2)NC(=O)[C@H](Cc2ccc(-c3ccccc3)cc2)NC(=O)[C@H](CN2CCOCC2)NC(=O)CSC[C@@H](C(=O)NCC(N)=O)NC1=O [Example 74] ({CH2CO}-[Ala(morpholin-4-yl)][Bip][Bip][Sar]YDRV[Tic]VYLCG-NH2; thioether N-13) ?
5.70 to 6.70
